Measured Em. max by item
- test_summary: Fluorescence emission maximum (Em. max) of the fluorochrome in solvent
- Assay type: physicochemical
- test_conditions: water
readout_kind: Em. max

INSERT INTO assay_data (compound, readout_kind, observed) VALUES
  ('CN1C2CCC1/C(=C\C=C1\N(CCCS(=O)(=O)O)c3ccc(S(=O)(=O)O)cc3C1(C)C)C(Cl)=C2/C=C/C1=[N+](CCCS(=O)(=O)O)c2ccc(S(=O)(=O)O)cc2C1(C)C (centres unmarked) [Compound 39]', 'Em. max', '788 nm'),
  ('CCN1/C(=C/C=C2C(Cl)=C(/C=C/C3=[N+](CC)c4ccc5c(S(=O)(=O)O)cc(S(=O)(=O)O)cc5c4C3(C)C)C3CCC/2N3C)C(C)(C)c2c1ccc1c(S(=O)(=O)O)cc(S(=O)(=O)O)cc21 (centres unmarked) [Compound 38]', 'Em. max', '827 nm'),
  ('CN1C2CCC1/C(=C\C=C1\N(CCCCS(=O)(=O)O)c3ccccc3C1(C)C)C(SCCC(=O)O)=C2/C=C/C1=[N+](CCCCS(=O)(=O)O)c2ccccc2C1(C)C (centres unmarked) [Compound 12]', 'Em. max', '787 nm'),
  ('CN1C2CCC1/C(=C\C=C1\N(CCCS(=O)(=O)O)c3ccc(S(=O)(=O)O)cc3C1(C)C)C(SCCC(=O)O)=C2/C=C/C1=[N+](CCCS(=O)(=O)O)c2ccc(S(=O)(=O)O)cc2C1(C)C (centres unmarked) [Compound 13]', 'Em. max', '797 nm'),
  ('CN1C2CCC1/C(=C\C=C1\N(CCCCS(=O)(=O)O)c3ccccc3C1(C)C)C(Cl)=C2/C=C/C1=[N+](CCCCS(=O)(=O)O)c2ccccc2C1(C)C (centres unmarked) [Compound 11]', 'Em. max', '775 nm');
